Measured IC50 of individual entries
# experimental_target: Human DNMT3b/3L (Homo sapiens, UniProt Q9UBC3)
# Construct: truncated 3b (catalytic domain)
# procedure_details: DNMT inhibition assay (3H-SAM filter-binding) against DNMT3b/3L
# Format: biochemical
# measurement_parameters: read-out: IC50 against DNMT 3b/3L
# Method: DNMT Assays Used for Examples 1-114 Human DNMT3b/3L was coexpressed using truncated 3b (catalytic domain) and 3L (DNA binding domain) at GSK. Human full-length DNMT1 enzyme purchased from BPS Biosciences. Poly(dIdC) DNA (Sigma) was used at 0.002 mg/mL. Tritiated SAM (Perkin Elmer) was used at 500 nM. […] Scintillation counts were measured on the Perkin Elmer Microbeta scintillation counter. […]

Some compounds with recorded IC50:
# IC50 lookup, item O=C(C#Cc1ccccc1)Nc1cccc(CNC(=O)NCc2ccnc3[nH]cc(Cl)c23)c1
≤ 1000 nM

Any idea what IC50 was measured for O=C(C#Cc1ccccc1)NCc1ccccc1CNC(=O)NCc1ccnc2[nH]ccc12 ?
≤ 1000 nM

# lookup: IC50 of O=C(C#Cc1ccccc1)Nc1cccc(CNC(=O)NCc2ccnc3[nH]cc(F)c23)c1
≤ 1000 nM

For the compound shown here, O=C(C#Cc1ccccc1)N1CCCC(CNS(=O)(=O)NCc2ccnc3[nH]ccc23)C1 (centres unmarked) , give the reported IC50.
≤ 1000 nM

Request the reported IC50 associated with O=C(C#Cc1ccccc1)NCc1ccccc1CNS(=O)(=O)NCc1ccnc2[nH]ccc12
≤ 1000 nM

Others:
Fill in the blank: the reported IC50 of O=C(C#Cc1ccccc1)NCCCC(=O)NCc1ccnc2[nH]ccc12 is ____.
≤ 1000 nM

I'd like to know its IC50. The compound in question is O=C(C#Cc1ccccc1)Nc1cccc(CCC(=O)NCc2ccnc3[nH]ccc23)c1
≤ 1000 nM

Query (compound): COc1ccc(C#CC(=O)NCCNC(=S)NCc2ccnc3[nH]ccc23)cc1 ; field requested: IC50
≤ 10000 nM

Entry O=C(C#Cc1ccccc1)NCCCNC(=O)NCc1ccnc2[nH]ccc12 has what IC50?
≤ 10000 nM

Which IC50 value is on record for O=C(C#Cc1ccccc1)NCc1ccccc1CNC(=S)NCc1ccnc2[nH]ccc12 ?
≤ 1000 nM

I would be grateful if you could share the reported IC50 for O=C(NCc1ccnc2[nH]cc(Cl)c12)NC1CCN(C(=O)C#Cc2ccccc2)C1 (centres unmarked) .
≤ 10000 nM

Given the compound O=C(C#Cc1ccccc1)Nc1cccc(CNC(=O)NCc2ccnc3[nH]cc(Br)c23)c1 , what is its reported IC50?
≤ 1000 nM

Endpoint output: IC50 of N#C/N=C(\NCCNC(=O)C#Cc1ccccc1)NCc1ccnc2[nH]ccc12 . Value?
≤ 10000 nM

Query: IC50; subject: COCC#CC(=O)Nc1cccc(CNC(=S)NCc2ccnc3[nH]ccc23)c1
≤ 1000 nM

Could you share which IC50 value was measured for O=C(C#Cc1ccccc1)Nc1cccc(CNC(=O)NCc2ccnc3[nH]ccc23)c1 ?
≤ 1000 nM

# input compound: CC#CC(=O)Nc1cccc(CNC(=O)NCc2ccnc3[nH]ccc23)c1 ; wanted: its IC50
≤ 1000 nM

Need IC50, item O=C(NCc1ccnc2[nH]ccc12)NC1CCN(C(=O)C#Cc2ccccc2)C1 (centres unmarked)
≤ 1000 nM

###

# experimental_target: Human DNMT3b/3L (Homo sapiens, UniProt Q9UBC3)
# Construct: truncated 3b (catalytic domain)
# procedure_details: DNMT inhibition assay (3H-SAM filter-binding) against DNMT3b/3L
# Format: biochemical
# measurement_parameters: at least one experimental run or average of several runs; Examples 1-114 and 115-120 use different protocols; read-out: IC50 against DNMT 3b/3L
# Procedure: DNMT Assays Used for Examples 1-114 Human DNMT3b/3L was coexpressed using truncated 3b (catalytic domain) and 3L (DNA binding domain) at GSK. Human full-length DNMT1 enzyme purchased from BPS Biosciences. Poly(dIdC) DNA (Sigma) was used at 0.002 mg/mL. Tritiated SAM (Perkin Elmer) was used at 500 nM. […] Scintillation counts were measured on the Perkin Elmer Microbeta scintillation counter. […]
experimental_endpoint: IC50

Study these solved cases before continuing.
Which IC50 value is on record for CN(C(=O)C#Cc1ccccc1)c1cccc(CNC(=S)NCc2ccnc3[nH]ccc23)c1 [Example 117] ?
≤ 10 µM

What does the data say about its IC50? Entry: Nc1cccc(CNC(=O)NCc2ccnc3[nH]cc(Cl)c23)c1 [Example 52]
7.1 µM

Can you look up the measured IC50 of S=C(NCc1ccccc1-c1cocn1)NCc1ccnc2[nH]ccc12 [Example 115] for me?
≤ 1 µM

Requested read-out: IC50. Entry: CC#CC(=O)Nc1cc(Cl)ccc1CNC(=S)NCc1ccnc2[nH]ccc12 [Example 82]
≤ 1 µM

Given the compound CC#CC(=O)Nc1cccc(CN/C(=N\C#N)NCc2ccnc3[nH]ccc23)c1 [Example 14] , what is its reported IC50?
≤ 20 µM

Others:
What value of IC50 has been reported for the following compound? CC#CC(=O)Nc1ccccc1CNS(=O)(=O)NCc1ccnc2[nH]ccc12 [Example 42]
≤ 20 µM

Bench note: what IC50 did NCC(=O)Nc1cccc(CNC(=S)NCc2ccnc3[nH]ccc23)c1 [Example 112] show?
≤ 20 µM

Need IC50, item O=C(C#CC1CCCC1)Nc1cccc(CNC(=O)NCc2ccnc3[nH]ccc23)c1 [Example 118]
≤ 1 µM

# get_value(readout='IC50', item= C=CC(=O)Nc1ccc(F)c(CNC(=S)NCc2ccnc3[nH]ccc23)c1 [Example 74] )
≤ 10 µM

###

# experimental_target: Human DNMT3b/3L (Homo sapiens, UniProt Q9UBC3)
# Construct: truncated 3b (catalytic domain)
# procedure_details: DNMT inhibition assay (3H-SAM filter-binding) against DNMT3b/3L
# Type: biochemical
# measurement_parameters: at least one experimental run or average of several runs; Examples 1-114 and 115-120 use different protocols; read-out: IC50 against DNMT 3b/3L
pIC50: −log10 of the molar value.
Listing: pIC50 of selected compounds

Reported pIC50 for C=CC(=O)Nc1cc(CNC(=S)NCc2ccnc3[nH]ccc23)cc(C(F)(F)F)c1 : what is it?
≥ 4.70

So what does the record say about pIC50 for C=CC(=O)Nc1ccc(C(F)(F)F)cc1CNC(=S)NCc1ccnc2[nH]ccc12 ?
≥ 4.70

Can you look up the measured pIC50 of O=C(NCc1ccnc2[nH]ccc12)NC1CN(C(=O)C#CC2CCCCC2)C1 for me?
≥ 6.00

Recorded pIC50 of O=C(NCc1ccccc1-c1cscn1)NCc1ccnc2[nH]ccc12 , please.
≥ 6.00

Look up pIC50 for this compound: O=C(CCBr)Nc1cccc(CNC(=S)NCc2ccnc3[nH]ccc23)c1
≥ 4.70

// returns reported pIC50 for input C=CC(=O)Nc1cc(CNC(=S)NCc2ccnc3[nH]ccc23)ccc1Cl
≥ 6.00

Continuing:
Look up pIC50 for this compound: O=C(C#Cc1ccccc1)NCCNS(=O)(=O)NCc1ccnc2[nH]ccc12
≥ 5.00

Any idea what pIC50 was measured for S=C(NCc1ccccc1-c1nccs1)NCc1ccnc2[nH]ccc12 ?
≥ 5.00

Given S=C(NCc1ccccc1C1CCCNC1)NCc1ccnc2[nH]ccc12 (stereo not drawn) , state its recorded pIC50.
≥ 5.00

###

# experimental_target: Human DNMT3b/3L (Homo sapiens, UniProt Q9UBC3)
# Construct: truncated 3b (catalytic domain)
# procedure_details: DNMT inhibition assay (3H-SAM filter-binding) against DNMT3b/3L
# Assay type: biochemical
# measurement_parameters: read-out: IC50 against DNMT 3b/3L
pIC50: −log10 of the molar value.
Consider the following molecules and their measured pIC50 readings.

Reference set, count: 2
Reported pIC50 for NCc1cccc(NC(=S)NCc2ccnc3[nH]ccc23)c1 : what is it?
≥ 4.70

# get_value(readout='pIC50', item= O=C(NCc1ccnc2[nH]ccc12)NC1CN(C(=O)C#Cc2ccccc2)C1 )
≥ 6.00

Okay, now this molecule:
Given the entry CN(CCNC(=O)NCc1ccnc2[nH]ccc12)C(=O)C#Cc1ccccc1 , report its measured pIC50.
≥ 5.00

###

# experimental_target: Human DNMT3b/3L (Homo sapiens, UniProt Q9UBC3)
# Construct: truncated 3b (catalytic domain)
# procedure_details: DNMT inhibition assay (3H-SAM filter-binding) against DNMT3b/3L
# Format: biochemical
# measurement_parameters: at least one experimental run or average of several runs; Examples 1-114 and 115-120 use different protocols; read-out: IC50 against DNMT 3b/3L
# Procedure: DNMT Assays Used for Examples 1-114 Human DNMT3b/3L was coexpressed using truncated 3b (catalytic domain) and 3L (DNA binding domain) at GSK. Human full-length DNMT1 enzyme purchased from BPS Biosciences. Poly(dIdC) DNA (Sigma) was used at 0.002 mg/mL. Tritiated SAM (Perkin Elmer) was used at 500 nM. […] Scintillation counts were measured on the Perkin Elmer Microbeta scintillation counter. […]
experimental_endpoint: IC50

Endpoint output: IC50 of O=C(C#Cc1ccc([N+](=O)[O-])cc1)NCCNC(=S)NCc1ccnc2[nH]ccc12 [Example 87] . Value?
≤ 1000 nM

Entry under review: O=C(C#Cc1ccccc1)NCCCNS(=O)(=O)NCc1ccnc2[nH]ccc12 [Example 49] . Reported IC50?
≤ 1000 nM

If you can, please state the reported IC50 value of O=C(C#Cc1ccccc1)Nc1cccc(CNC(=N[N+](=O)[O-])NCc2ccnc3[nH]ccc23)c1 [Example 24] .
≤ 1000 nM

---
IC50 for C=CC(=O)Nc1ccccc1CNS(=O)(=O)NCc1ccnc2[nH]ccc12 [Example 39] ?
≤ 10000 nM
